B1: HEEH_KT_rd6_0007 (parent)
chain: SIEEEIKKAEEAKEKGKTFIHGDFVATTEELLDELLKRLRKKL

# Variants of: B1
# assay details: folding stability dG (cDNA display proteolysis); higher = more stable
# condition: PBS, room temperature
observation type: folding stability dG (kcal/mol)
Write it as a number; the unit kcal/mol goes unstated.

- chain sequence: "SVEEEIKKAEEAKEKGKTFIHGDFVATTEELLDELLKRLRKKL [I2V]"
  value units: "kcal/mol"
  folding stability dG: 1.08
- chain sequence: "SIEEEIKKAEEAKLKGKTFIHGDFVATTEELLDELLKRLRKKL [E14L]"
  value units: "kcal/mol"
  folding stability dG: 1.58
- chain sequence: "SIEEEIKKAEEAKEKGKTFIHGDFVATTEELQDELLKRLRKKL [L32Q]"
  value units: "kcal/mol"
  folding stability dG: 0.13
- chain sequence: "SIEEEIKKAEEAKEKGKTFIHGRFVATTEELLDELLKRLRKKL [D23R]"
  value units: "kcal/mol"
  folding stability dG: 0.773

# ---- query variant ----
IN: Fill in: folding stability dG of SIWEEIKKAEEAKEKGKTFIHGDFVATTEELLDELLKRLRKKL [E3W] is ___
OUT: 1.7
